Listed below: OTUB2 values for each entry.
# Experimental System: OTUB2 (OTUB2A) (Homo sapiens, UniProt Q96DC9)
# Construct: full length residues 1-234, E. coli BL21(DE3)-R3, His tag removed by TEV, construct 27312 Da
# Sequence (Q96DC9 whole entry, the tested form may be a part): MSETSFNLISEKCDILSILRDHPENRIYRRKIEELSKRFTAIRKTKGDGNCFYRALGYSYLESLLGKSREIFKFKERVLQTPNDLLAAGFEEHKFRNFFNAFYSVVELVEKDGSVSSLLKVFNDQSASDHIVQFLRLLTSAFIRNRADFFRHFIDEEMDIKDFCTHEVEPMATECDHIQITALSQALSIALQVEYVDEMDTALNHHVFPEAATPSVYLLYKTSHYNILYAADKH
# Set-up: Intact protein LC/MS covalent labelling, fragments in pools of five, 200 uM each, 4 °C
# Test Context: 24 h, 4 °C, pool of five; 200 µM; covalent
Readout Kind: OTUB2

{"columns": ["Molecule", "Readout Kind", "Result"],
 "data": [
  ["O=C(CCl)N(C1CC1)C1CCS(=O)(=O)C1 (centres unmarked) [PCM-0102832]", "OTUB2", 0.43],
  ["Cc1cc(NC(=O)CCl)ccc1N1CCCC1 [PCM-0102175]", "OTUB2", 0.39],
  ["O=C(CCl)Nc1ccc(Cl)c(Cl)c1 [PCM-0102112]", "OTUB2", 0.3],
  ["CN(C(=O)CCl)c1nccs1 [PCM-0102975]", "OTUB2", 0],
  ["O=C(CCl)Nc1nc2ccccc2s1 [PCM-0102698]", "OTUB2", 0.07],
  ["O=C(CCl)NC1CS(=O)(=O)CC1Cl (centres unmarked) [PCM-0102291]", "OTUB2", 0],
  ["CC1(C)CCCN1C(=O)CCl [PCM-0103060]", "OTUB2", 0],
  ["C=CC(=O)N1CCCC(c2nc(-c3cccc(F)c3)no2)C1 (centres unmarked) [PCM-0102689]", "OTUB2", 0],
  ["CC(C)(C)c1cc(NC(=O)CCl)on1 [PCM-0102348]", "OTUB2", 0],
  ["Cc1ccsc1CNC(=O)CCl [PCM-0103075]", "OTUB2", 0.55],
  ["O=C(CCl)N1CCN(S(=O)(=O)c2c(F)cccc2F)CC1 [PCM-0102201]", "OTUB2", 0]
]}

// data source = paper PMC6556873
